meta.source: patent US20230399325A1

test details: Solid-state stability, 14 days, HPLC
Type: physicochemical
condition details: 40° C./75% RH
Protocol: Compound A salts and Compound A were tested for their solid-state stability under the conditions of 25° C./60% RH and 40° C./75% RH.
quantity name: Relative purity

Items follow; give Relative purity for each.
1. CCN1CCN(Cc2ccc(Nc3ncc(F)c(-c4sc(NC5CCCC5)nc4C)n3)nc2)CC1.O=C(O)CCC(=O)O [Compound A succinate]
2. CCN1CCN(Cc2ccc(Nc3ncc(F)c(-c4sc(NC5CCCC5)nc4C)n3)nc2)CC1.O=P(O)(O)O [Compound A phosphate]
3. CCN1CCN(Cc2ccc(Nc3ncc(F)c(-c4sc(NC5CCCC5)nc4C)n3)nc2)CC1
4. CCN1CCN(Cc2ccc(Nc3ncc(F)c(-c4sc(NC5CCCC5)nc4C)n3)nc2)CC1.Cl [Compound A hydrochloride]
5. CCN1CCN(Cc2ccc(Nc3ncc(F)c(-c4sc(NC5CCCC5)nc4C)n3)nc2)CC1.CS(=O)(=O)O [Compound A mesylate]

### Response
1: 100.0 % of initial; 2: 99.9 % of initial; 3: 100.1 % of initial; 4: 100.0 % of initial; 5: 100.0 % of initial
